Kindly state Kd for each of the entries shown.
TESTED ON: T1, Lassa NPn (N-terminal portion of NP encoding residues 1-340) (Lassa virus lineage IV, strain Josiah, UniProt P13699)
T1 construct: source: bought: Zalgen (recombinant)
T1 sequence (P13699 1-340): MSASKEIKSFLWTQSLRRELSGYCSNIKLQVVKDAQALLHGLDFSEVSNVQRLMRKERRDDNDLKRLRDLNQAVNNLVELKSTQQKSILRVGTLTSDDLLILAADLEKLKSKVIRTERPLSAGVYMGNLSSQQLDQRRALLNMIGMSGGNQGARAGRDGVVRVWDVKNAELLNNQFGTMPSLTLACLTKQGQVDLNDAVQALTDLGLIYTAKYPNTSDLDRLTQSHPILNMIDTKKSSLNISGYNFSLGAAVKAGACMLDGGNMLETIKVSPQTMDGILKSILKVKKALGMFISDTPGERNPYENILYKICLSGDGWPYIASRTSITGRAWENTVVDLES
ASSAY DETAILS: SPR; ProteOn XPR36; […] (20 ug/mL in 10 mM sodium acetate pH 5.0); […]; Langmuir model
CONDITION CONTEXT: both partners purified
Numbers only, in nM.

Example entries and their recorded answers appear below.
BINDER	Kd [nM]
sdAb F3 (VHH, source: E. coli Tuner (DE3), periplasmic, purified (osmotic shock, IMAC, gel filtration)) VHH: DVQLQASGGGLVQPGGSLRLSCAASGFTLVYYGIGWFRQAPGKEREGVSCISSYDGTTYYADSVKGRFTISRDNAKNTVYLQMNSLKPEDTAVYYCATELGNTHRGSYFPKQRVERCHTGDFASWGQGTQVTVSS	7.5
sdAb B5 (VHH, source: E. coli Tuner (DE3), periplasmic, purified (osmotic shock, IMAC, gel filtration)) VHH: EVQLQASGGGLAQPGGSLRLSCAASGFTLVYYGIGWFRQAPGKEREGVSCISSNDGSTYYADSVKGRFTISRDAAKNTVYLQMNSLKPEDTAVYYCATELGNTHRGSFFPNRRVERCRTDDFASWGQGTQVTVSS	19
sdAb E11 (VHH, source: E. coli Tuner (DE3), periplasmic, purified (osmotic shock, IMAC, gel filtration)) VHH: EVQLQASGGGLAQPGGSLRLSCAASGFTLVYYGIGWFRQAPGKEREGVSCISSNDGTTYYADSVKGRFTISRDNAKNTVYLQMNSLKPEDTAVYYCATELGNTHRGSYFPKQRVERCHTGDFASWGQGTQVTVSS	57

Give Kd for each of the items listed below.
1. sdAb H6 (VHH, also called clone H6; Bt-H6; source: E. coli Tuner (DE3), periplasmic, purified (osmotic shock, IMAC, gel filtration)) VHH: DVQLQASGGGVVQPGGSLRLSCVASGFTLVYYGIGWFRQAPGKEREGVSCISSNDGSTYYADSVKGRFTISRDAAKNTVYLQMNSLKPEDTAVYYCATELGNTHRGSFFPNRRVKRCRTDDFASWGQGTQVTVSS
2. sdAb C7 (VHH, source: E. coli Tuner (DE3), periplasmic, purified (osmotic shock, IMAC, gel filtration)) VHH: EVQLQASGGGLVQPGGSLRLSCVASGFTLVYYGIGWFRQAPGKEREGVSCISSNDGSTYYADSVKGRFTISRDAAKNTMYLQMNSLKPEDTAVYYCATELGNTHRGSFFPNRRVERCRTDDFASWGQGTQVTVSS

Resp:
1: 9.3; 2: 7.5

For each of the binders below, state Kd.
1. sdAb G11 (VHH, source: E. coli Tuner (DE3), periplasmic, purified (osmotic shock, IMAC, gel filtration)) VHH: DVQLQASGGGLVQAGDSLTLSCAASGRTVSPYGVGWFRQAPGREREFVAALSRSGTFTAYADSVKGRFTISRDNAKNTVYLQMNSLKPDDTAVYHCAARSASSYYSTYRKEDDYHYWGQGTQVTVSS
2. sdAb E10 (VHH, source: E. coli Tuner (DE3), periplasmic, purified (osmotic shock, IMAC, gel filtration)) VHH: DVQLQASGGGLVQAGASLRLSCAASGFTYTMGWFRQAPGQEREFVAAIARSGGTTYYTDSVKGRFTISRDNAKKTVFLQLNSLKPEDTAVYYCAADALPYSAQSMSTRNPGYWGQGTQVTVSS

Resp:
1. 184
2. 69
